Cited source for all entries: PubChem BioAssay

# Lookup of reported composite z-score keyed by entry
test system: XIP peptide (Xip251-270); assay: small-molecule binders of XIP peptide, primary screen, biochemical, small-molecule microarray, fluorescence 635/667 nm, 0.5 µg/mL protein (AID 1183); conditions: small-molecule microarray binding, fluorescence 635 nm; higher = more signal
Note: the reply should be a number with no unit written.

# count of solved cases: 10
O=C1O[C@@H](c2ccccc2)[C@@H](c2ccccc2)N2[C@@H](c3ccccc3OCCO)[C@]3(C(=O)Nc4ccc(C#CC5=CCCCC5)cc43)[C@@H](C(=O)NC[C@H](O)c3ccccc3)[C@H]12 = 0.0598
O=C1NCC(=O)N2[C@@H]1C[C@@H](C(=O)O)[C@H]2c1ccc(O)cc1 = 0.665
COc1ccc(NN2C(C(O)c3ccccn3)C=CC3C(=O)N(C4CCCCC4)C(=O)C32)cc1 (stereo unspecified) = 0.913
CCCC[C@@H]1C[C@H]1[C@@H](NC(=O)c1ccccc1)c1ccc(Cl)cc1 = -2.03
C=C(CCCC)C(=O)CC[C@@H](OC(=O)c1cccnc1)c1ccccc1OCCO = -0.0138
COCCCNC(=O)[C@]1(Cc2ccccc2N=[N+]=[N-])N=C(c2ccc(OCCCO)cc2)O[C@@H]1c1ccccc1N=[N+]=[N-] = 0.538
CCCNC(=O)[C@@]1(c2ccc([N+](=O)[O-])cc2)CC(=O)N(C2CCCCC2)[C@@H]1c1ccc(CO)cc1I = 0.845
NC(=O)NCC#Cc1ccc2c(c1)[C@]1(C(=O)N2)[C@H](C(=O)O)[C@H]2C(=O)O[C@H](c3ccccc3)[C@H](c3ccccc3)N2[C@@H]1c1ccccc1OCCO = 0.823
C=CC[C@@H](OC(=O)Nc1ccc(OC)cc1)c1ccc(OCCO)cc1 = -0.543
COc1ccc([Si](C)(C)[C@H]2[C@H](CCO)O[C@@]3(C(=O)N(Cc4cccc(N5CCCCC5=O)c4)c4ccccc43)[C@@H]2C)cc1 = 0.589

// query Which composite z-score value belongs to C=C(CCCC)/C(=C/C[C@@H](OC(=O)c1ccncc1)c1cccc(OCCO)c1)c1cnc2ccccc2c1 ?
// result 0.405

// query Form field: reported composite z-score of COc1cc(OC)c(C(O)C2C=CC3C(=O)N(c4ccccc4)C(=O)C3N2Nc2ccc(C#N)cc2)cc1Br (stereo unspecified)
// result 0.796

// query Query (compound): COC(=O)C[C@H]1O[C@]2(C(=O)N(C)c3ccccc32)[C@@H](C)[C@@H]1[Si](C)(C)c1ccc(C)cc1 ; field requested: composite z-score
// result 0.336

// query Could you share which composite z-score value was measured for [N-]=[N+]=Nc1ccccc1[C@@H]1OC(c2ccc(OCCCO)cc2)=N[C@]1(CCS(=O)(=O)c1ccccc1)C(=O)NCCN1CCOCC1 ?
// result 0.433

// query Any idea what its composite z-score is? The compound is C=C(COC)/C(=C/C[C@@H](OC(=O)c1ccncc1)c1ccc(CO)o1)c1cnc2ccccc2c1
// result 0.726

// query Fill in the blank: the reported composite z-score of C[C@]1(C(=O)NCCN2CCOCC2)c2ccccc2C(=O)N(Cc2ccc(OC(F)(F)F)cc2)[C@H]1c1ccc(CO)cc1 is ____.
// result 0.466

====

// reported z-score for each item listed
molecular target: Luciferin 4-monooxygenase (Photinus pyralis) (UniProt P08659); assay: firefly luciferase enzyme inhibitors, primary screen, biochemical, luminescence, purified enzyme, 2006 set (AID 1141); conditions: SteadyGlo luminescence, 30 min, higher = more signal, called active from +8 up or from −8 down;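 note: cell-free assay with purified firefly luciferase at 100 ng per well in PBS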
Sequence (P08659 whole entry, looked up): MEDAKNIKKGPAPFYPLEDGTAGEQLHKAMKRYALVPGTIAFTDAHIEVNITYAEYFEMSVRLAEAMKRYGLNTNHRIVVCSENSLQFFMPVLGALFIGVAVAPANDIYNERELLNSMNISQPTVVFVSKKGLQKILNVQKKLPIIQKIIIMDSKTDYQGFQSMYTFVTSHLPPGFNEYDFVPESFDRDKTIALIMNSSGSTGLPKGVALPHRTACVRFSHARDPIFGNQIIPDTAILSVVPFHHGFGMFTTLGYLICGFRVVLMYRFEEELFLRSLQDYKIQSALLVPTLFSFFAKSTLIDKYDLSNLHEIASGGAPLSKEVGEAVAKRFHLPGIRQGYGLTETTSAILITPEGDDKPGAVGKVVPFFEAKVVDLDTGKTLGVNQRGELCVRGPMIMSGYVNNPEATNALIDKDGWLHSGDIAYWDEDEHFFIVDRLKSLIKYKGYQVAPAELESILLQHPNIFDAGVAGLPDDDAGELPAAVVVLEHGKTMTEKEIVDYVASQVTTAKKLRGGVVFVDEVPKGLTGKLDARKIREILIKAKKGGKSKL
Lab note: jot down the number only; don't add units.

// query Param item = C[n+]1ccc(CCCO)cc1 ; retrieve measured z-score.
// result 0.246

// query Value lookup for z-score; key = O=C1C[C@]2(c3ccc([N+](=O)[O-])cc3)C(=O)N(Cc3ccccc3)c3cc(CO)ccc3[C@H]2N1CC12CC3CC(CC(C3)C1)C2
// result -0.271

// query Given COCCOC(=O)N1C(=O)[C@@]2(c3cc(C#Cc4ccc(OC)cc4)ccc31)[C@H](C(=O)N1CCCCCCC1)[C@H]1C(=O)O[C@H](c3ccccc3)[C@H](c3ccccc3)N1[C@@H]2c1ccc(O)cc1 , state its recorded z-score.
// result -0.0524

// query // lookup z-score for O=C1O[C@@H](c2ccccc2)[C@@H](c2ccccc2)N2[C@@H](c3ccc(O)cc3)[C@]3(C(=O)Nc4ccc(C#CC5=CCCCC5)cc43)[C@@H](C(=O)N3CCN(c4ncccn4)CC3)[C@H]12
// result 0.745

// query Query (compound): C=CCNC(=O)[C@H]1[C@@H]2C(=O)O[C@@H](c3ccccc3)[C@@H](c3ccccc3)N2[C@@H](c2ccccc2OCCO)[C@]12C(=O)N(C(=O)OCCOC)c1ccc(C#CC3=CCCCC3)cc12 ; field requested: z-score
// result -1.48

====

Recorded composite z-score values for a group of compounds are listed next.
system: glycogen synthase kinase-3 (GSK3A per assay name; protocol says GSK3B); assay: GSK3 binders on small-molecule microarrays, primary screen, biochemical, small-molecule microarray, 635 nm fluorescence, GSK3A (AID 1103); conditions: small-molecule microarray binding, fluorescence 635 nm; higher = more signal; note: the record names both GSK3A and GSK3B
Give only the figure.

Examples with their reported composite z-score follow.
COC(=O)C(CC#Cc1ccc2c(c1)[C@]1(C(=O)N2)[C@H](C(=O)O)[C@H]2C(=O)O[C@H](c3ccccc3)[C@H](c3ccccc3)N2[C@@H]1c1ccccc1OCCO)C(=O)OC = 1.31
CN(C)CCCNC(=O)[C@@H]1c2ccccc2C(=O)N(CC23CC4CC(CC(C4)C2)C3)[C@H]1c1ccc(CO)cc1 = 0.98

Would you kindly look at the next entry?
// query For the compound Cc1c(NC(=O)/C(C#N)=C/C=C/c2ccccc2[N+](=O)[O-])c(=O)n(-c2ccccc2)n1C , what composite z-score is on record?
// result 0.417

====

target: Torsin-1A-interacting protein 1 (Homo sapiens); test: LAP1 binders from COS7 cell lysate, primary screen, small-molecule microarray, 635/667 nm fluorescence (AID 1116); conditions: COS7-hLAP1 lysate binding, 635 nm fluorescence, higher = more signal
endpoint name: composite z-score
Lab note: record the figure alone, no unit after it.

C=CCOC(=O)[C@H]1[C@@H]2C(=O)O[C@@H](c3ccccc3)[C@@H](c3ccccc3)N2[C@@H](c2ccc(OCCOC(=O)[C@H]3C[C@H]4C(=O)N[C@@H](CCCC[N+](C)(C)C)C(=O)N4[C@H]3c3cccc(OCCO)c3)cc2)[C@]12C(=O)Nc1ccc(I)cc12 = 0.62
COCCOC(=O)N1C(=O)[C@@]2(c3cc(C#Cc4ccc(OC)cc4)ccc31)[C@H](C(=O)N1CCN(c3ncccn3)CC1)[C@H]1C(=O)O[C@H](c3ccccc3)[C@H](c3ccccc3)N1[C@@H]2c1ccccc1OCCO = 0.931
CN(C)CCCCNC(=O)[C@H]1C[C@H]2C(=O)N[C@@H](CCCCN(C)C)C(=O)N2[C@H]1c1cccc(OCCO)c1 = 0.752
CCOC(=CC(=O)OC)CC(O)c1cccc(Cl)c1 (stereo unspecified) = 1.36
COC(=O)[C@@]1(Cc2ccccc2)[C@H]2c3cc(C(=O)N4CCCC4)n(Cc4cc(F)cc5c4OCOC5)c3C[C@H]2CN1C(=O)c1ccccc1 = 1.74
O=C1NC(=O)C2C1C=CC(C(O)c1c(F)cccc1Cl)N2Nc1ccccn1 (stereo unspecified) = 0.505

// query composite z-score value for entry COC(=O)[C@@]1(Cc2ccc(OC)cc2)[C@H]2c3cc(C(=O)N(C)C)n(CCc4c[nH]c5ccc(O)cc45)c3C[C@H]2CN1C(=O)c1ccccc1
// result 1.3

// query Could you share which composite z-score value was measured for C=CCC(OC(C)=O)[C@@H]1[C@@H](N(Cc2cc3ccccc3o2)C(=O)Cc2ccc(F)cc2)c2cc(OCCCO)ccc2N1C(=O)c1ccc2ccccc2n1 (stereo partly specified) ?
// result -0.103

// query For the compound CCOC(=O)C1=CC[C@@H](c2ccccc2)N(S(=O)(=O)c2ccc(C)cc2)C1 , what composite z-score is on record?
// result 0.127

// query Fill in the blank: the reported composite z-score of COC(=O)[C@@]1(Cc2ccc(OC)cc2)[C@H]2c3cc(C(=O)N4CCCC4)n(CCc4cc5ccccc5[nH]4)c3C[C@H]2CN1C(=O)c1ccccc1 is ____.
// result 2.4

// query Dear colleague, I am looking for the recorded composite z-score of the following compound: CC=CC(O)C1C=CC2C(=O)N(c3ccccc3)C(=O)C2N1Nc1ccc([N+](=O)[O-])cc1 (stereo unspecified)
// result 0.643

====

The entries below come with measured composite z-score values attached.
test: binders of probe aFGF2 on microarray, primary screen, stem cell growth factor project, biochemical, small-molecule microarray, fluorescence 635/667 (AID 1067); conditions: higher = more signal;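 note: measures binding of biotinylated aFGF2 protein to printed compounds on slides; z-score merges feature fluorescence and signal-to-noise across triplicate slides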
Keep the answer to the number alone.

Worked set:
NC(=O)N1C(=O)C2C(C1=O)C1C=C(CCCO)C2C(c2cccs2)N1Cc1cc2c(cc1Br)OCO2 (stereo not drawn) = -0.0036
COCCCNC(=O)[C@]1(Cc2ccccc2N=[N+]=[N-])N=C(c2ccc(OCCCO)cc2)O[C@@H]1c1ccccc1N=[N+]=[N-] = 0.0797

Proceed to the following item.
// query Param item = C=CCOC(=O)[C@H]1[C@@H]2C(=O)O[C@@H](c3ccccc3)[C@@H](c3ccccc3)N2[C@@H](c2ccc(OCCOC(=O)[C@H]3C[C@H]4C(=O)N[C@@H](Cc5ccccc5)C(=O)N4[C@H]3c3cccc(OCCO)c3)cc2)[C@]12C(=O)Nc1ccc(I)cc12 ; retrieve measured composite z-score.
// result 0.0422
